B1: KLHL12 (parent)
chain: LDYTADEDGVWYSVAPMNVRRGLA

Variants of: B1
Test: protein stability index of a GFP-peptide fusion (GPS, HEK-293T) (PSI 1-6); higher = more stable;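 further: lentivirally expressed fusions sorted by FACS into six bins by GFP to DsRed ratio, PSI derived from sequencing read proportions per bin multiplied by bin number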
Conditions: c terminus: a fixed tail appended
Let's look at some variants and their measured protein stability index.
Please give the numeric answer without any surrounding text.

Worked examples, 5 variants total:
L1Q :: 4
E7V :: 1.44
Y3R :: 2.99
L1R :: 2.99
G22S :: 1.72

Lookup: Can you look up the measured protein stability index of "D2K" for me?
Found: 1.68

Lookup: Can you look up the measured protein stability index of "A24N" for me?
Found: 2.25

Lookup: Can you look up the measured protein stability index of "D8R" for me?
Found: 1.56

Lookup: Can you look up the measured protein stability index of "Y12L" for me?
Found: 2.02

The measured values listed here are drawn from the supplement of paper PMC10567573.
